Reported Percent Effect values for the following compounds.
- ASSAY SYSTEM: Protein translocase subunit SecA (Escherichia coli (strain K12)) (UniProt P10408)
- Sequence (P10408 whole entry): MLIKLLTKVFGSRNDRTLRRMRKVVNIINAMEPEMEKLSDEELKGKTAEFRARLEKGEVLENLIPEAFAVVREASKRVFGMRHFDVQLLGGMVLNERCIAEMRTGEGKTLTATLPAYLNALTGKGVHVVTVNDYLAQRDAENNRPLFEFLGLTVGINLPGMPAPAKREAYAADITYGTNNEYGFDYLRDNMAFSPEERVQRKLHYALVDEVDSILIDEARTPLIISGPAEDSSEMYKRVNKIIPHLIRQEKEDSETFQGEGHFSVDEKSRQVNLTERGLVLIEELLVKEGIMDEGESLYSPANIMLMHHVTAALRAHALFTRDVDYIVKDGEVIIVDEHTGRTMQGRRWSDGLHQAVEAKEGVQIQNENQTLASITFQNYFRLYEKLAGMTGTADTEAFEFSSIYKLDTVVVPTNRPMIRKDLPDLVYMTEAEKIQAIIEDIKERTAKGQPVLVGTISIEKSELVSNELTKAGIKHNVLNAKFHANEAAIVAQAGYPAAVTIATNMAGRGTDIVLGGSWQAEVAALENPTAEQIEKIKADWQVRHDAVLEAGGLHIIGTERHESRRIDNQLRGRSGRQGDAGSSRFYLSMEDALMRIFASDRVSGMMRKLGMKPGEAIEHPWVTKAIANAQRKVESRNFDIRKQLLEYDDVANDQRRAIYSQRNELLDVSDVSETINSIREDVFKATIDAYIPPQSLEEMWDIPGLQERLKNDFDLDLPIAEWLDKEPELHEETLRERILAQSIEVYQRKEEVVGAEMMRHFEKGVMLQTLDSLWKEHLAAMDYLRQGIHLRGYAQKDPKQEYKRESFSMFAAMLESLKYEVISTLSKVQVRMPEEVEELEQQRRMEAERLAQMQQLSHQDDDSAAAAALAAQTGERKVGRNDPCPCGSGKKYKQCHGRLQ
- ASSAY NAME: Assay to Identify E. coli SecA ATPase Inhibitors
- Assay type: functional
- Set-up: scale not given: direction of the effect not stated beside the values
- PARTICULARS: 30 µM
Entries with a potency or affinity are not part of this list.
Numeric answer only, unit % assumed.

Consider the reported Percent Effect for these compounds:
INSERT INTO assay_data (compound, units, numeric_result) VALUES
  ('CC(C)=CCN(C)C1CCCN(Cc2noc(C)n2)C1 (stereo unspecified)', '%', -2.36),
  ('CN(C)C(=O)N1C[C@@H]2CC[C@H](C1)N(C(=O)CCCn1cncn1)C2', '%', -2.38),
  ('CCc1nc(C2CCCN(C(=O)CN(C)S(C)(=O)=O)C2)no1 (stereo unspecified)', '%', -5.19),
  ('CC(=O)N1CCC(c2cncc(Oc3ccccc3)n2)CC1', '%', -10),
  ('Cc1c[nH]nc1C1CCCCN1C(=O)Cn1cc(Cl)cn1 (stereo unspecified)', '%', -0.928);

Memo: Cc1nc(C)n(CC2CCCCN2Cc2ncc(C(C)(C)C)o2)n1 (stereo unspecified) , reported Percent Effect: -2.22

---

- Test system: Trypanosoma cruzi
- ASSAY NAME: Trypanosoma cruzi phosphomannomutase and mannose-1-phosphate guanylyltransferase assay
- Type: functional
- Design: scale not given: direction of the effect not stated beside the values
- PARTICULARS: 10 µM
Reported Percent Effect values for the following compounds.
Numeric answer only, unit % assumed.

Consider the reported Percent Effect for these compounds:
INSERT INTO measurements (compound, numeric_result) VALUES
  ('c1ccc(CCNC2CCc3ncnn3C2)nc1 (stereo unspecified)', -0.373),
  ('O=C1CC(c2cccc(O)c2)c2c(c(C(=O)O)cn2-c2ccccc2)N1 (stereo unspecified)', -3.34),
  ('COc1cc(NC(=O)Cn2ccc3sc(C)cc3c2=O)cc(OC)c1', -5.42),
  ('Cc1ncc2c(n1)CCN(Cc1nc3ccccc3o1)C2', 0.201),
  ('CN(Cc1ccc(F)cc1)C(=O)NCC1(N2CCOCC2)CCSC1 (stereo unspecified)', 2.12);

Memo: COc1ccc(C(C)NC(=O)NCCCn2cncn2)cc1F (stereo unspecified) , reported Percent Effect: -0.602

---

- ASSAY SYSTEM: Ubiquitin-activating enzyme e1, putative (Leishmania donovani (strain BPK282A1))
- Sequence (whole entry): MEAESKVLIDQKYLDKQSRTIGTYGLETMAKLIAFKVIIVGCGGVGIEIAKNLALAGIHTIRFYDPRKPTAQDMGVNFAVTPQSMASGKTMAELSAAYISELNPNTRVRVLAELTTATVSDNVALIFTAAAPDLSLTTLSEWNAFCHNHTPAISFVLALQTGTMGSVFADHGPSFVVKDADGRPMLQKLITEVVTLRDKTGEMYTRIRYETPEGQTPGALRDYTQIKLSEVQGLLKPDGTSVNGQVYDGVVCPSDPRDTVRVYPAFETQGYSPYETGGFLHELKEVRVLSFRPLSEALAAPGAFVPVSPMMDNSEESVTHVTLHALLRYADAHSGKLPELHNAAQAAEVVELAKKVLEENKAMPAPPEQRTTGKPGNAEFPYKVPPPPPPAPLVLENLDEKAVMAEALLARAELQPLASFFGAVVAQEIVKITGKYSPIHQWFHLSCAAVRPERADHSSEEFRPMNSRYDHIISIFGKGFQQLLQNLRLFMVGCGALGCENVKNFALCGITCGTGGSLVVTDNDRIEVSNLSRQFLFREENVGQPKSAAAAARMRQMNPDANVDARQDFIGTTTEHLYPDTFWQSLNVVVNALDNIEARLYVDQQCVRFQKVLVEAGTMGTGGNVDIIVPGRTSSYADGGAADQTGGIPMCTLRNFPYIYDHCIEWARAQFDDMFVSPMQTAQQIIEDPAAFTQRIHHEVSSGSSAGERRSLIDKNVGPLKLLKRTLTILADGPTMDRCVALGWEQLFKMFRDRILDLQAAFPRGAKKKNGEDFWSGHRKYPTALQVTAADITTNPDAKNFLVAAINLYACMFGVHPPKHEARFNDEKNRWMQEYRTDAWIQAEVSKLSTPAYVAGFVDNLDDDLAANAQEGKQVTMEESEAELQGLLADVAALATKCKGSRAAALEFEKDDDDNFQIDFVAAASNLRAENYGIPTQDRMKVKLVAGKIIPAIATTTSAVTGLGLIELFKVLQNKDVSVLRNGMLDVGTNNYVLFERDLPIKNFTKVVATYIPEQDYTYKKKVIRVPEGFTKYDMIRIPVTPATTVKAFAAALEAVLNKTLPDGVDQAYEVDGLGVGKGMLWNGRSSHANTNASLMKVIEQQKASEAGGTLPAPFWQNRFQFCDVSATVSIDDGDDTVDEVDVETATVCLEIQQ
- ASSAY NAME: Leishmania donovani Ubiquitin Activating Enzyme (LdE1)
- Format: functional
- Design: scale not given: direction of the effect not stated beside the values
- PARTICULARS: 30 µM
Potency and affinity values are given separately.
Reported Percent Effect values for the following molecules.
Numeric answer only, unit % assumed.

INSERT INTO results (molecule, numeric_result) VALUES
  ('CN1CCCC[C@@H]2[C@H]1[C@@H](c1ccccc1)CCN2C(=O)c1cnccn1', 1.35),
  ('COc1ccc(C(C(=O)O)N2CCCN(C3CCCC3)CC2)cc1OC (stereo unspecified)', 0),
  ('CN(C)S(=O)(=O)N1C[C@@H](Oc2ccccn2)[C@H]2OCCC[C@H]21', 10.4),
  ('CC(C)CCn1[nH]c(CNc2ccccc2)nc1=O', 2.63),
  ('Cc1nc(CN2CCCC(CCc3ccc(F)cc3F)C2)c[nH]1 (stereo unspecified)', -2.7);

Memo: Cn1nnc2cc(C(=O)N3CCCC3Cc3ccccc3)ccc21 (stereo unspecified) , reported Percent Effect: 2.74

---

- ASSAY SYSTEM: Chromo domain-containing protein 1 (Saccharomyces cerevisiae (strain ATCC 204508 / S288c) (Baker's yeast))
- ASSAY NAME: ScCHD-1 Enzyme Inhibition Assay; further: in the data most compounds retested in dose-response had high values
- Format: functional
- Set-up: scale not given: direction of the effect not stated beside the values
- PARTICULARS: 30 µM
REPORTED PROPERTY: Percent Effect (%)
Numeric answer only, unit % assumed.

INSERT INTO results (compound, units, numeric_result) VALUES
  ('Cn1nnc2c1CCN(Cc1ccccc1)C2COCC1CC1 (configuration not stated)', '%', -11.1),
  ('Cc1csc(N2CCN(C(=O)CCc3nccs3)CC2)n1', '%', -11.1),
  ('Cn1cnnc1C1CCCN(C(=O)c2ccccc2Cl)C1 (configuration not stated)', '%', -17.8),
  ('COc1ccc(C2CC(=O)Nc3c2nc2n3CCCC2)cc1OC (configuration not stated)', '%', -4.25);

Memo: CCn1nnc2c1C(COC)CN(Cc1ccsc1)C2 (configuration not stated) , reported Percent Effect: -3.53

Memo: CC(C)c1ncc(CN2CCCC(CO)C2)cn1 (configuration not stated) , reported Percent Effect: -0.548

Memo: Cc1ccc(-c2nnc(CNCCn3cc(C)cn3)o2)cc1 , reported Percent Effect: -4.71

---

- ASSAY SYSTEM: Chromo domain-containing protein 1 (Saccharomyces cerevisiae (strain ATCC 204508 / S288c) (Baker's yeast)) (UniProt P32657)
- Sequence (P32657 whole entry, the tested form may be a part): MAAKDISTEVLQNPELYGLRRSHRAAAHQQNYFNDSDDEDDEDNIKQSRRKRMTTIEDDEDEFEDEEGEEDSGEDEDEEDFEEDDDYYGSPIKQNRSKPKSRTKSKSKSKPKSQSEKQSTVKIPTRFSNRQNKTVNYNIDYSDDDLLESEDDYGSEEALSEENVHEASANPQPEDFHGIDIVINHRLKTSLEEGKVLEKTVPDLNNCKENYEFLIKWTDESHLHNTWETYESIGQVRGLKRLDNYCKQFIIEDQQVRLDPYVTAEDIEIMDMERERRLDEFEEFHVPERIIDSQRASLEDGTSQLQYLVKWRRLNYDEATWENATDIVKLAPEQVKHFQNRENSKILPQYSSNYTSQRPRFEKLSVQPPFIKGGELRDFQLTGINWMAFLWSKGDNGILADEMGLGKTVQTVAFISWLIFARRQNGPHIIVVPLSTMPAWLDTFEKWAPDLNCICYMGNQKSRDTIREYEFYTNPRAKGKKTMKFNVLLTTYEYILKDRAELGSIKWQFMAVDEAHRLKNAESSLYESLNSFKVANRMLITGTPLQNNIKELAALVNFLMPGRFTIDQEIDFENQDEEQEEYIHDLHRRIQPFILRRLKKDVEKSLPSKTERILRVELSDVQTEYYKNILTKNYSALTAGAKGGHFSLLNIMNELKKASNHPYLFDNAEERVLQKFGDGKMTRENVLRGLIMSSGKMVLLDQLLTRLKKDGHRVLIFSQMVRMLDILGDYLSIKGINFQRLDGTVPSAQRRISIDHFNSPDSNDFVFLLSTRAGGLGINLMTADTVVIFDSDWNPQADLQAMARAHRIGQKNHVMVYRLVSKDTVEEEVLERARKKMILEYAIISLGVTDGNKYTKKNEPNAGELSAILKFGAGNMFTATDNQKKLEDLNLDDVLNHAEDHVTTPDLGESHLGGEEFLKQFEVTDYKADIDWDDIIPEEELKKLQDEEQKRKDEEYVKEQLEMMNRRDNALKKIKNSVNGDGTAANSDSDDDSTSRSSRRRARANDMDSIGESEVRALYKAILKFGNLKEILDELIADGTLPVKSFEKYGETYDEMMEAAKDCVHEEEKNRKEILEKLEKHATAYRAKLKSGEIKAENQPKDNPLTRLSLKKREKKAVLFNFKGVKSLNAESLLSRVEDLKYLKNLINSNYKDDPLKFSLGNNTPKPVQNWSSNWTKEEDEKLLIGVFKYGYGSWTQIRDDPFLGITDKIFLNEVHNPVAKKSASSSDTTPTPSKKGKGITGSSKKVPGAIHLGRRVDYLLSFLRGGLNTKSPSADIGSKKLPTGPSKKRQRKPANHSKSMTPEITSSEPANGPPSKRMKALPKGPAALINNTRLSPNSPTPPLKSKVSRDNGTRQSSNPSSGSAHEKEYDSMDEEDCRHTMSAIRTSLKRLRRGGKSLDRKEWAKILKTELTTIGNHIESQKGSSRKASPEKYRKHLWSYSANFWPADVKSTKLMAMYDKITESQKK
- ASSAY NAME: ScCHD-1 Enzyme Inhibition Assay; further: in the data most compounds retested in dose-response had high values
- Assay type: functional
- Parameters: scale not given: direction of the effect not stated beside the values
- PARTICULARS: 30 µM
REPORTED PROPERTY: Percent Effect (%)
Numeric answer only, unit % assumed.

Consider the reported Percent Effect for these molecules:
INSERT INTO measurements (molecule, numeric_result) VALUES
  ('COc1ccc(C(O)CNC(=O)NCc2csc(C)n2)cc1 (centres undefined)', -6.16),
  ('CC(C)CN1CCc2[nH]cnc2C12CCN(C(=O)c1cccnc1)CC2', -6.87),
  ('O=C(CCN1C(=O)CCC1=O)Nc1cnn(-c2ccccc2Cl)c1', 4.56);

Memo: C1CC(CN2CCO[C@H]3[C@H](OCC4CC4)CC[C@@H]32)CCO1 , reported Percent Effect: -1.93

Memo: CC(O)CNC(=O)NCc1ccc(N2CCNC(=O)C2)cc1 (centres undefined) , reported Percent Effect: -11.2

Memo: COCC1CCN(C(=O)c2cccc(S(=O)(=O)NC3CCCC3)c2)C1 (centres undefined) , reported Percent Effect: -13.4

Memo: Cc1ccc(OCC(=O)NS(=O)(=O)c2c(C)noc2C)cc1C , reported Percent Effect: -0.0938

Memo: CCNC(=O)c1ccc(N2CCCC(c3nccn3C(C)C)C2)nc1 (centres undefined) , reported Percent Effect: -4.72

---

- ASSAY SYSTEM: Ubiquitin-activating enzyme e1, putative (Leishmania donovani (strain BPK282A1))
- ASSAY NAME: Leishmania donovani Ubiquitin Activating Enzyme (LdE1)
- Assay type: functional
- Parameters: scale not given: direction of the effect not stated beside the values
- PARTICULARS: 30 µM
Potency and affinity values are given separately.
REPORTED PROPERTY: Percent Effect (%)
Numeric answer only, unit % assumed.

INSERT INTO measurements (compound, numeric_result) VALUES
  ('Cc1nn(C)c(N(C)C)c1CNCC(O)COc1ccccc1 (configuration not stated)', 5.48);

Now turn to the next compound.
Memo: COCCc1noc(CN2CCCC2c2c(C)nn(C)c2C)n1 (configuration not stated) , reported Percent Effect: 0
